I'd be grateful if you could share measured Average response for these entries.
- study_system: Drosophila OR47a (Drosophila melanogaster)
- Construct: expressed in transfected cells
- Sequence (P81921 whole entry, one chain of several): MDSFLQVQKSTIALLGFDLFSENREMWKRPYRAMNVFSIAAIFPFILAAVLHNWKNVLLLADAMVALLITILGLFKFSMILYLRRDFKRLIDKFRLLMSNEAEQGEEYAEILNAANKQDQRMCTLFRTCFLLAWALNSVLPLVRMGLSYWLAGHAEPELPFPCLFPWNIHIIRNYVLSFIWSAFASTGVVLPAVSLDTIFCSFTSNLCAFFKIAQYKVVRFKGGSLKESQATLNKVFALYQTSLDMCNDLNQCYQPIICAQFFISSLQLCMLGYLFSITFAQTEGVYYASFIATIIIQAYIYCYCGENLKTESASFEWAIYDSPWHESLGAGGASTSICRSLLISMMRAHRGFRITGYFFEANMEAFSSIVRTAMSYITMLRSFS
- method: Calcium ion fluorescence (GCaMP6) assay, OR47a stable HEK293 cell line
- Format: cell-based
- experimental_context: OR47a cell line; odorant cc. 10 µM; mean of biological replicates
Respond with the number and no other words.

Query Average response on Drosophila OR47a (Drosophila melanogaster) for CCCCC(C)=O
0.00

Query Average response on Drosophila OR47a (Drosophila melanogaster) for C=CC(C)(O)CCC=C(C)C (centres unmarked)
0.0374

Query Average response on Drosophila OR47a (Drosophila melanogaster) for CC1=CCC2C(C1)C2(C)C (centres unmarked)
0.00

Query Average response on Drosophila OR47a (Drosophila melanogaster) for C=C1[C@H]2CC[C@@H]3[C@H]2C(C)(C)CCC[C@]13C [(+)-longifolene]
0.00

Query Average response on Drosophila OR47a (Drosophila melanogaster) for CCCCCC(=O)CC
0.16

Query Average response on Drosophila OR47a (Drosophila melanogaster) for CC/C=C/CCO
0.00

Query Average response on Drosophila OR47a (Drosophila melanogaster) for CCCCCO
0.00

Query Average response on Drosophila OR47a (Drosophila melanogaster) for CCOC(=O)CC [ethyl propionate]
0.0134

---

- study_system: Drosophila OR47a (Drosophila melanogaster)
- Construct: expressed in transfected cells
- method: Calcium ion fluorescence (GCaMP6) assay, OR47a stable HEK293 cell line
- Format: cell-based
- experimental_context: ligand concentration 1 (unit not given); threshold 0.05, below shown as 0
I'd be grateful if you could share measured DF norm AVERAGE OR47a for these entries.
Respond with the number and no other words.

Name the reported DF norm AVERAGE OR47a value associated with the compound COC(=O)c1ccccc1O [methyl salicylate]
0.1126

Name the reported DF norm AVERAGE OR47a value associated with the compound CCCCCOC(C)=O [pentyl acetate]
0.4101

Name the reported DF norm AVERAGE OR47a value associated with the compound CCCOC(C)=O [propyl acetate]
0

Name the reported DF norm AVERAGE OR47a value associated with the compound C=C1CCC2(C(C)C)CC12 (stereo not drawn) [sabinene]
0

Name the reported DF norm AVERAGE OR47a value associated with the compound O=Cc1ccccc1 [benzaldehyde]
0

Name the reported DF norm AVERAGE OR47a value associated with the compound CCCCCCCCCC=O [decanal]
0

Name the reported DF norm AVERAGE OR47a value associated with the compound OCCc1ccccc1 [phenethyl alcohol]
0.05643

Name the reported DF norm AVERAGE OR47a value associated with the compound CCc1ccccc1 [ethylbenzene]
0

Name the reported DF norm AVERAGE OR47a value associated with the compound CC/C=C/CCO [e3-hexenol]
0.06256

Name the reported DF norm AVERAGE OR47a value associated with the compound COC(=O)c1ccccc1 [methyl benzoate]
0

Name the reported DF norm AVERAGE OR47a value associated with the compound Cc1cccc(C)c1 [m-xylene]
0

Name the reported DF norm AVERAGE OR47a value associated with the compound C=CCc1ccc(O)c(OC)c1 [eugenol]
0

Name the reported DF norm AVERAGE OR47a value associated with the compound CCCC(=O)OCC [ethyl butyrate]
0

Name the reported DF norm AVERAGE OR47a value associated with the compound Cc1ccc(C)cc1 [p-xylene]
0

Name the reported DF norm AVERAGE OR47a value associated with the compound Cc1ccccc1C [o-xylene]
0

Name the reported DF norm AVERAGE OR47a value associated with the compound CCCCCC(=O)OCC [ethyl hexanoate]
0.06617

Name the reported DF norm AVERAGE OR47a value associated with the compound Cc1ccc(C(C)C)cc1 [p-cymene]
0

Name the reported DF norm AVERAGE OR47a value associated with the compound C=CC(C)(O)CCC=C(C)C (stereo not drawn) [linalool]
0

Name the reported DF norm AVERAGE OR47a value associated with the compound CCOC(=O)c1ccccc1 [ethyl benzoate]
0

Name the reported DF norm AVERAGE OR47a value associated with the compound CC1=CCC2CC1C2(C)C (stereo not drawn) [alpha-pinene]
0

Name the reported DF norm AVERAGE OR47a value associated with the compound CC(=O)OCCC(C)C [isopentyl acetate]
0

---

- study_system: Drosophila OR85b (Drosophila melanogaster, UniProt Q9VHQ7)
- Construct: expressed in transfected cells
- Sequence (Q9VHQ7 1-390): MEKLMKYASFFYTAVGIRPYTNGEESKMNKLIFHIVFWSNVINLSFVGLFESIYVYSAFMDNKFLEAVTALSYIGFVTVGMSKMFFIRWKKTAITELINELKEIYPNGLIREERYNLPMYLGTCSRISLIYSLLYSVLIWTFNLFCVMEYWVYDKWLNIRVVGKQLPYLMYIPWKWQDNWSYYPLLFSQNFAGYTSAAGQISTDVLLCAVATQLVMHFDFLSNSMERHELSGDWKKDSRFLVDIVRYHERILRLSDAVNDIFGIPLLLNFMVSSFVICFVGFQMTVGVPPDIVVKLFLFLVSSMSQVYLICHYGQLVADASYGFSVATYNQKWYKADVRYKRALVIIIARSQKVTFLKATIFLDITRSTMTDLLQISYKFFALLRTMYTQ
- Sequence (Q9VNB5 1-486 partner): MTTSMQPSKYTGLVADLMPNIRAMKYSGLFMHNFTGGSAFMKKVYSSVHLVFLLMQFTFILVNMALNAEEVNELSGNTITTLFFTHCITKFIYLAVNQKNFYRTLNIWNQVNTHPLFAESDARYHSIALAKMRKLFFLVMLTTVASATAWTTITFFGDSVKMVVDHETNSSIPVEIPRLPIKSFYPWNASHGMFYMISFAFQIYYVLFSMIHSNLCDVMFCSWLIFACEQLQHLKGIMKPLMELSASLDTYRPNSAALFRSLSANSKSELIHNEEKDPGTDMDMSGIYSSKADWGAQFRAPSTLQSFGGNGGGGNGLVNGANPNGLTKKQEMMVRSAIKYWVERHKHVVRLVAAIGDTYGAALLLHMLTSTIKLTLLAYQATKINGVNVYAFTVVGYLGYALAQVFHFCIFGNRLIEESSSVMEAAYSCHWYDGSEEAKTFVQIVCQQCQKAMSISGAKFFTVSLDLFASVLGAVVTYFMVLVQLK
- method: Calcium ion fluorescence (GCaMP6) assay, OR85b stable HEK293 cell line
- Format: cell-based
- experimental_context: ligand concentration 1 (unit not given); 0.05 threshold, values below shown as 0
- Method: These VUAA1 normalized ∆F values were used to compare the different receptors and ligands. The concentration-dependent effect of the reference ligands on their cognate cell lines was examined in more detail. Twelve different ligand concentrations were measured on each cell line in an overall 0.01 μM to 100 μM concentration range with 5 repetitions with three technical replicates each time. […]
I'd be grateful if you could share measured DF norm AVERAGE OR85b for these entries.
Respond with the number and no other words.

Query DF norm AVERAGE OR85b on Drosophila OR85b (Drosophila melanogaster, UniProt Q9VHQ7) for CCCCCCCCCCCCCC
0.0972

Query DF norm AVERAGE OR85b on Drosophila OR85b (Drosophila melanogaster, UniProt Q9VHQ7) for CC/C=C\CCO
0.05333

Query DF norm AVERAGE OR85b on Drosophila OR85b (Drosophila melanogaster, UniProt Q9VHQ7) for CC1=CCC23CC1C(C)(C)C2CCC3C (centres unmarked)
0.09747

Query DF norm AVERAGE OR85b on Drosophila OR85b (Drosophila melanogaster, UniProt Q9VHQ7) for C=Cc1ccccc1
0

Query DF norm AVERAGE OR85b on Drosophila OR85b (Drosophila melanogaster, UniProt Q9VHQ7) for Cc1ccccc1
0.08429

---

- study_system: Drosophila OR85b (Drosophila melanogaster)
- Construct: expressed in transfected cells
- Sequence (Q9VHQ7 1-390): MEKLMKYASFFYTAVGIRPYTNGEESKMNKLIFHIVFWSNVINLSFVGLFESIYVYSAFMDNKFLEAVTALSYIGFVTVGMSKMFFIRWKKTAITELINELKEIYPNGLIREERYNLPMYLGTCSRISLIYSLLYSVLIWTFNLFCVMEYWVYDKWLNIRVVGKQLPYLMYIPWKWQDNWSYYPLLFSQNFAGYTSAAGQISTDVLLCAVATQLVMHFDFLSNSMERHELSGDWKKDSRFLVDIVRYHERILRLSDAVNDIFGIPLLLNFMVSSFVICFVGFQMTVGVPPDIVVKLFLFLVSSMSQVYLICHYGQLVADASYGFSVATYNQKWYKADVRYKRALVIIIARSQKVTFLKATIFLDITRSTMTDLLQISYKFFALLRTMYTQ
- Sequence (Q9VNB5 1-486 partner): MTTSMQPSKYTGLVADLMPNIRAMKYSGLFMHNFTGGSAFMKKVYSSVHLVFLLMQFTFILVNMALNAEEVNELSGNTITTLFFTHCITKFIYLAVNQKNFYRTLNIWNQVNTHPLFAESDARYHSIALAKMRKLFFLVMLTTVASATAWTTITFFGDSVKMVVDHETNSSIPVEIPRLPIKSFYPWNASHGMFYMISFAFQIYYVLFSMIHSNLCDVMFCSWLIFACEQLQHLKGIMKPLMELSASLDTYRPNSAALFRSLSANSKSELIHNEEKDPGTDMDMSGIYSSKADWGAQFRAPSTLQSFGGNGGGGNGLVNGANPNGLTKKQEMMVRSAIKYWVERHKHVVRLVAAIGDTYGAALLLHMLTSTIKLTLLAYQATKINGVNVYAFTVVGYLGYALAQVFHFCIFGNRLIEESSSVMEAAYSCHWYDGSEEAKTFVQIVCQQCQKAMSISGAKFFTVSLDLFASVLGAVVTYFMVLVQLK
- method: Calcium ion fluorescence (GCaMP6) assay, OR85b stable HEK293 cell line
- Assay type: cell-based
- experimental_context: HEK293, read-out: OR85b Average response (VUAA1-normalized)
I'd be grateful if you could share measured activation at 1 µM for these entries.
Express the result in % but write the number alone.

Name the reported activation at 1 µM value associated with the compound Cc1ccc(C)c(C)c1
4

Name the reported activation at 1 µM value associated with the compound CCCCCC(C)O (centres unmarked)
5

Name the reported activation at 1 µM value associated with the compound CCCCCCCCCCC
3

Name the reported activation at 1 µM value associated with the compound CCCCCC(C)=O
4

Name the reported activation at 1 µM value associated with the compound CC1=CCC23CC1C(C)(C)C2CCC3C (centres unmarked)
10
